Origin of measurements: PubChem BioAssay (EPA / NIEHS)

read-out: Transforming growth factor beta 1 (TGFb1), TGFB1 (gene 7040); experiment: BSK_BE3C_TGFb1: BioMAP Diversity Plus: BE3C Assay for Transforming growth factor beta 1 (TGFb1) Biomarker Activity (AID 2283036;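 also: TGF-b1 protein level measured by ELISA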); conditions: primary human bronchial epithelial cells; actives raise or lower the signal
Active and inactive are the calls of the source. The calls were made as follows: active = hit-call score of the fitted dose curve at least 0.9, where 1 is the maximum; inactive = score below 0.9.

{"COMPOUND": "COC(=O)c1ccccc1C(=O)O", "outcome": "inactive"}
{"COMPOUND": "CCCCCCC(C)OC(=O)COc1nc(F)c(Cl)c(N)c1Cl (stereo not drawn)", "outcome": "inactive"}
{"COMPOUND": "Cc1nn(C)c(Oc2ccccc2)c1C=NOCc1ccc(C(=O)OC(C)(C)C)cc1", "outcome": "inactive"}

---

test: BSK_4H_SRB: Viability Assessment in the BioMAP Diversity Plus: 4H Assay (AID 2283027); details: primary human endothelial cells (HUVEC);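 also: cells exposed to compound for 24 h before staining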
Active and inactive are the calls of the source. The calls were made as follows: active = hit-call score of the fitted dose curve at least 0.9, where 1 is the maximum; inactive = score below 0.9.
Please state which outcome applies, choosing from active, inactive

Solved entries:
{"SMILES_INPUT": "c1ccc(Nc2ccccc2)cc1", "GROUP": "inactive"}
{"SMILES_INPUT": "COC(=O)CSc1cc(N=c2sc(=O)n3n2CCCC3)c(F)cc1Cl", "GROUP": "inactive"}
{"SMILES_INPUT": "Oc1ccc(C(c2ccc(O)cc2)C(Cl)(Cl)Cl)cc1", "GROUP": "active"}
{"SMILES_INPUT": "CCOC(=O)[C@H](C)Oc1ccc(Oc2nc3ccc(Cl)cc3o2)cc1", "GROUP": "inactive"}
{"SMILES_INPUT": "O=C(Nc1ccc([N+](=O)[O-])cc1Cl)c1cc(Cl)ccc1O", "GROUP": "active"}

Input: Entry "O=C(O)c1ccccc1" : call = ?
Output: inactive

Input: Entry "c1ccc2[nH]c(-c3cscn3)nc2c1" : call = ?
Output: inactive

---

target: Peroxisome proliferator-activated receptor gamma (Homo sapiens); test: ATG_PPARg_TRANS: Attagene TRANS-FACTORIAL HepG2 Assay for human Peroxisome Proliferator-activated Receptor-gamma (PPARg) (AID 2283007)
Inconclusive results are not listed. Activity calls are given as the source filed them. Rule for the calls: active = hit-call score of the fitted dose curve at least 0.9, where 1 is the maximum; inconclusive = response in the unintended direction; inactive = score below 0.9.
Please state which outcome applies, choosing from yes (1) = active, no (0) = inactive

Solved entries:
{"COMPOUND": "C#CCOC(=O)[C@@H](C)Oc1ccc(Oc2ncc(Cl)cc2F)cc1", "GROUP": "no (0)"}
{"COMPOUND": "c1ccc2[nH]c(-c3cscn3)nc2c1", "GROUP": "no (0)"}
{"COMPOUND": "CCOC(=O)C(C)Oc1ccc(Oc2nc3ccc(Cl)cc3o2)cc1 (stereo unspecified)", "GROUP": "no (0)"}
{"COMPOUND": "C=CCOC(Cn1ccnc1)c1ccc(Cl)cc1Cl (stereo unspecified)", "GROUP": "yes (1)"}
{"COMPOUND": "O=C(c1ccc(O)cc1O)c1ccc(O)cc1O", "GROUP": "yes (1)"}

Input: Entry CCCCC(CC)CN1C(=O)C2C3C=CC(C3)C2C1=O (stereo unspecified) : call = ?
Output: yes (1)

Input: Entry "CCCCOC(=O)[C@@H](C)Oc1ccc(Oc2ccc(C(F)(F)F)cn2)cc1" : call = ?
Output: no (0)

Input: Entry "CCCCOCCOCCOCc1cc2c(cc1CCC)OCO2" : call = ?
Output: yes (1)

---

test: APR_HepG2_NuclearSize_24hr: Apredica 24-hour HepG2 Assay for Nuclear Size (AID 2282907); conditions: high-content imaging, actives raise or lower the signal
Activity calls are given as the source filed them. The calls were made as follows: active = hit-call score of the fitted dose curve at least 0.9, where 1 is the maximum; inactive = score below 0.9.
Please state which outcome applies, choosing from 1.0 (active), 0.0 (inactive)

Solved entries:
{"COMPOUND": "C#C[C@]1(O)CC[C@H]2[C@@H]3CCC4=CC(=O)CC[C@@H]4[C@H]3CC[C@@]21CC", "GROUP": 0.0}
{"COMPOUND": "COC(=O)c1cccc(C)c1S(=O)(=O)NC(=O)Nc1nc(OCC(F)(F)F)nc(N(C)C)n1", "GROUP": 0.0}
{"COMPOUND": "CC(C)(C)[C@@H](O)[C@@H](Cc1ccc(Cl)cc1)n1cncn1", "GROUP": 0.0}
{"COMPOUND": "N#CSCSc1nc2ccccc2s1", "GROUP": 0.0}
{"COMPOUND": "CCC(O)=C1C(=O)CC(C(=O)O)CC1=O (stereo not drawn)", "GROUP": 0.0}

Input: Entry "O=C(O)c1ccccc1" : call = ?
Output: 0.0

Input: Entry "COC(=O)c1ccc(I)cc1S(=O)(=O)NC(=O)Nc1nc(C)nc(OC)n1" : call = ?
Output: 0.0

Input: Entry "CCOC(=O)COc1cc(-n2ncc(C(F)(F)F)c(C)c2=O)c(F)cc1Cl" : call = ?
Output: 0.0

Input: Entry "C#CCOC(=O)[C@@H](C)Oc1ccc(Oc2ncc(Cl)cc2F)cc1" : call = ?
Output: 0.0

Input: Entry "CCN(CC)C(=O)c1cccc(C)c1" : call = ?
Output: 0.0

Input: Entry "CCN(Cc1c(F)cccc1Cl)c1c([N+](=O)[O-])cc(C(F)(F)F)cc1[N+](=O)[O-]" : call = ?
Output: 0.0

Input: Entry "CSC(=O)c1cccc2nnsc12" : call = ?
Output: 0.0

---

read-out: Pro-epidermal growth factor (Homo sapiens) (UniProt P01133); assay: LTEA_HepaRG_EGF: Life Technologies and Expression Analysis (LTEA) Assay for Epidermal growth factor (EGF) using HepaRG (AID 2283489); conditions: mRNA level, 48 h; actives raise or lower the signal
Active and inactive are the calls of the source. The calls were made as follows: active = hit-call score of the fitted dose curve at least 0.9, where 1 is the maximum; inactive = score below 0.9.
Please state which outcome applies, choosing from y (active), n (inactive)

Solved entries:
{"COMPOUND": "CCCCCOC(=O)COc1cc(N2C(=O)C3=C(CCCC3)C2=O)c(F)cc1Cl", "GROUP": "n"}
{"COMPOUND": "C[C@]12CC[C@@H]3c4ccc(O)cc4C[C@@H](CCCCCCCCCS(=O)CCCC(F)(F)C(F)(F)F)[C@H]3[C@@H]1CC[C@@H]2O (stereo partly drawn)", "GROUP": "y"}

Switching to the query record.
Input: Entry "CCCCOCCOCCOCc1cc2c(cc1CCC)OCO2" : call = ?
Output: n

---

Test: ATG_AP_2_CIS: Attagene CIS-FACTORIAL HepG2 Assay for human Activator Protein 2 (AP-2) (AID 2282932)
Details: HepG2 AP-2 cis-reporter, Attagene transcription factor profiling; actives raise or lower the signal
Protocol: ATG_CIS is a cell-based, multiplexed-readout assay that uses HepG2, a human liver cell line, with measurements taken at 24 hours after chemical dosing in a 24-well plate.ATG_AP_2_CIS is one of 52 assay component(s) measured or calculated from the ATG_CIS assay. […] This assay endpoint, ATG_AP_2_CIS, was analyzed with bidirectional fitting relative to DMSO as the negative control and baseline of activity. […]
Active and inactive are the calls of the source. The calls were made as follows: active = hit-call score of the fitted dose curve at least 0.9, where 1 is the maximum; inactive = score below 0.9.
Please state which outcome applies, choosing from active, inactive

Solved entries:
{"MOLECULE": "CCOC(=O)C(C)Oc1ccc(Oc2nc3ccc(Cl)cc3o2)cc1 (stereo not given)", "GROUP": "inactive"}
{"MOLECULE": "c1ccc2[nH]c(-c3cscn3)nc2c1", "GROUP": "inactive"}
{"MOLECULE": "COC(=O)c1ccccc1C(=O)O", "GROUP": "inactive"}
{"MOLECULE": "S=C([S-])NCCNC(=S)[S-].[Mn+2]", "GROUP": "inactive"}
{"MOLECULE": "OB(O)O", "GROUP": "inactive"}

Input: Entry "C#CCOC(=O)[C@@H](C)Oc1ccc(Oc2ncc(Cl)cc2F)cc1" : call = ?
Output: inactive

Input: Entry "c1ccc(Nc2ccccc2)cc1" : call = ?
Output: inactive

Input: Entry "CCOC(=O)COc1cc(-n2ncc(C(F)(F)F)c(C)c2=O)c(F)cc1Cl" : call = ?
Output: inactive

Input: Entry "CC(C)(C)[C@@H](O)[C@@H](Cc1ccc(Cl)cc1)n1cncn1" : call = ?
Output: inactive

Input: Entry "Cc1nn(C)c(Oc2ccccc2)c1C=NOCc1ccc(C(=O)OC(C)(C)C)cc1" : call = ?
Output: inactive

Input: Entry "O=C(O)c1ccccc1" : call = ?
Output: inactive

Input: Entry "CSC(=O)c1cccc2nnsc12" : call = ?
Output: inactive

Input: Entry "COC(=O)c1ccccc1S(=O)(=O)NC(=O)Nc1nc(OC(F)F)cc(OC(F)F)n1" : call = ?
Output: inactive

Input: Entry C=CCOC(Cn1ccnc1)c1ccc(Cl)cc1Cl (stereo not given) : call = ?
Output: active

Input: Entry "CC(=O)S[C@@H]1CC2=CC(=O)CC[C@]2(C)[C@H]2CC[C@@]3(C)[C@@H](CC[C@@]34CCC(=O)O4)[C@H]12" : call = ?
Output: inactive

---

read-out: Tumor necrosis factor (Homo sapiens) (UniProt P01375); assay: BSK_LPS_TNFa: BioMAP Diversity Plus: LPS Assay for Tumour Necrosis Factor alpha (TNFa) Biomarker Activity (AID 2283085); conditions: primary human HUVEC with PBMC; actives raise or lower the signal
Sequence (P01375 whole entry, looked up): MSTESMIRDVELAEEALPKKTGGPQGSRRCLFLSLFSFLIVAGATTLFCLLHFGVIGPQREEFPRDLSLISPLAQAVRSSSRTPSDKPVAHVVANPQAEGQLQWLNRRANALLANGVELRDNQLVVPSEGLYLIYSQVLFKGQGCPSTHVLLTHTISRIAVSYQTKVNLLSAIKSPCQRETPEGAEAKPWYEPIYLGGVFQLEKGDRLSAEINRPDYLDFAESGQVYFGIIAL
Active and inactive are the calls of the source. The calls were made as follows: active = hit-call score of the fitted dose curve at least 0.9, where 1 is the maximum; inactive = score below 0.9.
Please state which outcome applies, choosing from T = active, F = inactive

{"COMPOUND": "C[C@]12CC[C@@H]3c4ccc(O)cc4C[C@@H](CCCCCCCCCS(=O)CCCC(F)(F)C(F)(F)F)[C@H]3[C@@H]1CC[C@@H]2O (stereo partly specified)", "GROUP": "F"}

Input: Entry "O=C(O)c1ccccc1" : call = ?
Output: F

Input: Entry "c1ccc2[nH]c(-c3cscn3)nc2c1" : call = ?
Output: F

Input: Entry "C[C@]12C[C@H](O)[C@H]3[C@@H](CCC4=CC(=O)CC[C@@]43C)[C@@H]1CC[C@@H]2C(=O)CO" : call = ?
Output: F

Input: Entry "COC(=O)c1ccc(I)cc1S(=O)(=O)NC(=O)Nc1nc(C)nc(OC)n1" : call = ?
Output: F

Input: Entry CCC(C)OC(=O)N1CCCCC1CCO (stereo unspecified) : call = ?
Output: F

Input: Entry CCCCC(CC)COC(=O)c1ccccc1C(=O)O (stereo unspecified) : call = ?
Output: T

Input: Entry "O=C(c1ccccc1)C1CCCCC1" : call = ?
Output: F
